- TEST_PROTOCOL: Mouse single dose pharmacokinetics
- Assay type: in vivo, C57BL/6 mice
- ASSAY_CONDITIONS: male, C57BL/6, plasma, 0.5 mg/kg, IV, read-out: Vss
Decision: Vd >= 3 L/kg yields 1, all other cases yield 0.

For orientation, consider the following solved cases.
Cc1cc(CN2C(=O)CN([C@H]3CC[C@H](C)CC3)C(=O)C23CN(C(N)=O)C3)ccc1F 0
CC(C)N1CC(=O)N(Cc2ccc(C(F)(F)F)cc2)C2(CN(c3cccnn3)C2)C1=O 0
C[C@H]1CC[C@H](N2CC(=O)N(Cc3ccc(F)c(F)c3)C3(CN(C(N)=O)C3)C2=O)CC1 1

Okay, now this compound:
In plain terms: is recorded Vd at least 3 L/kg for `CC(C)N1CC(=O)N(Cc2ccc(Cl)c(F)c2)C2(CN(c3cccnn3)C2)C1=O` ? 1

* * *

- SYSTEM_UNDER_TEST: CYP3A4 (Homo sapiens, UniProt P08684)
- Construct: Pooled human microsomes and selective CYP probe substrates were used; from tissue; host or cells: pooled human liver microsomes
- Sequence (P08684 whole entry): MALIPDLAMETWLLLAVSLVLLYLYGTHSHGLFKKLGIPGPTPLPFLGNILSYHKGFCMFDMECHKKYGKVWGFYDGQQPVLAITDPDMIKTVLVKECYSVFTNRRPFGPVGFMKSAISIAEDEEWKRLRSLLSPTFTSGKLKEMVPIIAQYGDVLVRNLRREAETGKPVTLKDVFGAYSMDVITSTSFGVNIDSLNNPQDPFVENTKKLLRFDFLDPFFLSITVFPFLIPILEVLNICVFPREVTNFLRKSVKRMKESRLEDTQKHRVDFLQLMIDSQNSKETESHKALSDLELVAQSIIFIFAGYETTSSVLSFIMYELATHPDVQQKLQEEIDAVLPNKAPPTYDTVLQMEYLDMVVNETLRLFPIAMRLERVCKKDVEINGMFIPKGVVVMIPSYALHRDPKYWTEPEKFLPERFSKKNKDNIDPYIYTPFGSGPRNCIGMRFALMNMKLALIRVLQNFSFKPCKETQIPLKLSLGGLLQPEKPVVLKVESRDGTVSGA
- TEST_PROTOCOL: Time-dependent inhibition of CYP3A4 in human liver microsomes (testosterone and midazolam probes)
- Format: in vitro ADME
- ASSAY_CONDITIONS: pooled human liver microsomes; CYP3A4-M (midazolam probe substrate), 50 μM, human liver microsomes, time zero; read-out: % Activity NADPH T0
Listing of recorded activity at 0 min, 50 µM by entry.
Number in %, nothing else.

Example molecules with recorded activity at 0 min, 50 µM:
MOLECULE	SYSTEM_UNDER_TEST	activity at 0 min, 50 µM [%]
CC(C)N1CC(=O)N(Cc2ccc(C(F)(F)F)cc2)C2(CN(c3cccnn3)C2)C1=O [Compound 13]	CYP3A4 (Homo sapiens, UniProt P08684)	72
C[C@H]1CC[C@H](N2CC(=O)N(Cc3ccc(F)c(F)c3)C3(CN(C(N)=O)C3)C2=O)CC1 [Compound 5]	CYP3A4 (Homo sapiens, UniProt P08684)	67
CC(C)N1CC(=O)N(Cc2ccc(Cl)c(F)c2)C2(CN(c3cccnn3)C2)C1=O [Compound 8]	CYP3A4 (Homo sapiens, UniProt P08684)	100
C[C@H]1CC[C@H](N2CC(=O)N(Cc3ccc(F)c(Cl)c3)C3(CN(C(N)=O)C3)C2=O)CC1 [Compound 7]	CYP3A4 (Homo sapiens, UniProt P08684)	100
Cc1cc(CN2C(=O)CN([C@H]3CC[C@H](C)CC3)C(=O)C23CN(C(N)=O)C3)ccc1F [Compound 6]	CYP3A4 (Homo sapiens, UniProt P08684)	72

Recorded activity at 0 min, 50 µM of C[C@H]1CC[C@H](N2CC(=O)N(Cc3ccc(Cl)cc3)C3(CN(C(N)=O)C3)C2=O)CC1 [Compound 18] , please. 126

* * *

- TEST_PROTOCOL: Monkey single dose pharmacokinetics
- Assay type: in vivo
- ASSAY_CONDITIONS: male, plasma, cynomolgus monkey, IV, read-out: t½ (converted)
MEASURED_METRIC: half-life (h)
All answers are understood in h, so give the number only.

MOLECULE	half-life (h)
CC(C)N1CC(=O)N(Cc2ccc(C(F)(F)F)cc2)C2(CN(c3cccnn3)C2)C1=O [Compound 13]	2.05

Item under review: C[C@H]1CC[C@H](N2CC(=O)N(Cc3ccc(Cl)cc3)C3(CN(C(N)=O)C3)C2=O)CC1 [Compound 18] . Reported half-life? 10.9

* * *

Listed here: items and their measured Vd.
- TEST_PROTOCOL: Monkey single dose pharmacokinetics
- Format: in vivo
- ASSAY_CONDITIONS: male, plasma, cynomolgus monkey, IV, read-out: Vss
- Description: Non-naïve Male Cynomolgus Monkey (2-5 years of age, body weight 2-5 kg) used in this study were obtained from Topgene Biotechnology. […] Concentrations of IV and PO doses were measured at the end of the study. PK parameters were calculated using the nominal dose values if the measured values were within 20% of the nominal values. […] Plasma samples were analyzed for compound concentrations using the LC/MS/MS method. […] Apparent elimination half-life (t1/2) values were calculated as ln(2)/k. […]
Please reply with the bare figure in L/kg and do not write the unit itself.

C[C@H]1CC[C@H](N2CC(=O)N(Cc3ccc(Cl)cc3)C3(CN(C(N)=O)C3)C2=O)CC1 6.08

As a next step, examine the compound that follows.
Could you share which Vd value was measured for `CC(C)N1CC(=O)N(Cc2ccc(C(F)(F)F)cc2)C2(CN(c3cccnn3)C2)C1=O` ? 3.98

* * *

- TEST_PROTOCOL: Dog single dose pharmacokinetics
- Assay type: in vivo, beagle dogs
- ASSAY_CONDITIONS: male, beagle, plasma, IV, read-out: t½ (converted)
MEASURED_METRIC: half-life (min)
The figure you give is taken to be in min; do not add the unit.

Some solved cases for reference:
MOLECULE	MEASURED_METRIC	MEASURED_RESULT
O=CN1CC2(C1)C(=O)N([C@H]1CC[C@H](C(F)F)CC1)CC(=O)N2Cc1ccc(C(F)(F)F)cc1	half-life	1990
C[C@H]1CC[C@H](N2CC(=O)N(Cc3ccc(F)c(F)c3)C3(CN(C=O)C3)C2=O)CC1	half-life	572
O=C1[C@H](C2COC2)N(Cc2ccc(C(F)(F)F)cc2)C(=O)CN1c1ncc(Cl)cc1F [Comparator C, reference compound]	half-life	880

Would you kindly look at the next entry?
Dear colleague, I am looking for the recorded half-life of the following molecule: `C[C@H]1CC[C@H](N2CC(=O)N(Cc3ccc(Cl)cc3)C3(CN(C(N)=O)C3)C2=O)CC1` 348

* * *

- SYSTEM_UNDER_TEST: CYP2C9 (Homo sapiens)
- Construct: Pooled human microsomes and selective CYP probe substrates were used; from tissue; host or cells: pooled human liver microsomes
- Sequence (P11712 whole entry): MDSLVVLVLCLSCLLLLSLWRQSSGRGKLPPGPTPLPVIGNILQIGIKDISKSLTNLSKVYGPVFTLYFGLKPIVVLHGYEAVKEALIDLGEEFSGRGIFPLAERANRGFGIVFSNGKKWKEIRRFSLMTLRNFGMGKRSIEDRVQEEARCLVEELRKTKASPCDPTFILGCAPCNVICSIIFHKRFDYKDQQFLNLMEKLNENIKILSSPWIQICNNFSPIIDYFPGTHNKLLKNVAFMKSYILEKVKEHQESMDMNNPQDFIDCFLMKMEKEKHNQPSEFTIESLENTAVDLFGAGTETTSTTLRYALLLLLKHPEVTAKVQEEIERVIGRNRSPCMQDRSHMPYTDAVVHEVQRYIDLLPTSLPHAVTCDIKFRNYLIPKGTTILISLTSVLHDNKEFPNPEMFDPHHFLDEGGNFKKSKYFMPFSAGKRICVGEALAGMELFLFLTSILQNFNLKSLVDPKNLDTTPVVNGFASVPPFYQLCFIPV
- TEST_PROTOCOL: Time-dependent inhibition of CYP2C9 in human liver microsomes
- Format: in vitro ADME
- ASSAY_CONDITIONS: pooled human liver microsomes; CYP2C9, 50 μM, human liver microsomes, time zero; read-out: % Activity NADPH T0
Quick rule for you: activity at 0 min, 50 µM at 90% or higher means true (1), lower means false (0).

Does the reported activity at 0 min, 50 µM for `Cc1cc(CN2C(=O)CN([C@H]3CC[C@H](C)CC3)C(=O)C23CN(C(N)=O)C3)ccc1F` fall at or above the 90% mark? false (0)

Could you do the same for `CC(C)N1CC(=O)N(Cc2ccc(Cl)c(F)c2)C2(CN(c3cccnn3)C2)C1=O` , please? true (1)

Queued: `C[C@H]1CC[C@H](N2CC(=O)N(Cc3ccc(F)c(F)c3)C3(CN(C(N)=O)C3)C2=O)CC1` false (0)

And then `CC(C)N1CC(=O)N(Cc2ccc(C(F)(F)F)cc2)C2(CN(c3cccnn3)C2)C1=O` , what is it? true (1)

Again, but for `C[C@H]1CC[C@H](N2CC(=O)N(Cc3ccc(F)c(Cl)c3)C3(CN(C(N)=O)C3)C2=O)CC1` false (0)

Consider next the molecule `C[C@H]1CC[C@H](N2CC(=O)N(Cc3ccc(Cl)cc3)C3(CN(C(N)=O)C3)C2=O)CC1` in the same way. false (0)

* * *

# Lookup of reported clearance keyed by entry
- TEST_PROTOCOL: Monkey single dose pharmacokinetics
- Type: in vivo
- ASSAY_CONDITIONS: male, plasma, cynomolgus monkey, IV
# output: bare number, implied unit mL/min/kg

COMPOUND	clearance, mL/min/kg
C[C@H]1CC[C@H](N2CC(=O)N(Cc3ccc(Cl)cc3)C3(CN(C(N)=O)C3)C2=O)CC1 [Compound 18]	7.91

// below: clearance requested for another compound
Fill blank: measured clearance of the compound CC(C)N1CC(=O)N(Cc2ccc(C(F)(F)F)cc2)C2(CN(c3cccnn3)C2)C1=O [Compound 13] is ____. 25.8

* * *

- SYSTEM_UNDER_TEST: CYP3A4 (Homo sapiens)
- Construct: Pooled human microsomes and selective CYP probe substrates were used; from tissue; host or cells: pooled human liver microsomes
- TEST_PROTOCOL: Time-dependent inhibition of CYP3A4 in human liver microsomes (testosterone and midazolam probes)
- Assay type: in vitro ADME
- ASSAY_CONDITIONS: pooled human liver microsomes; CYP3A4-T (testosterone probe substrate), 50 μM, human liver microsomes, time zero; read-out: % Activity NADPH T0
- Method: An assessment of the time-dependent Inhibitory Potential of the test compounds against Principal Human Cytochrome P450 Isozymes using Human Liver Microsomes was also carried out using standard methods (Grimm et al, Drug Metab. Dispos., July; 37(7):1355-70. doi: 10.1124/dmd.109.026716, 2009). […] LC-MS/MS was used to quantify metabolite formation. […]
Catalogue of activity at 0 min, 50 µM values
Your answer should be a plain number; it is taken to be in %.

Recorded results for 5 compounds are shown here.
CC(C)N1CC(=O)N(Cc2ccc(C(F)(F)F)cc2)C2(CN(c3cccnn3)C2)C1=O 56
C[C@H]1CC[C@H](N2CC(=O)N(Cc3ccc(F)c(Cl)c3)C3(CN(C(N)=O)C3)C2=O)CC1 100
C[C@H]1CC[C@H](N2CC(=O)N(Cc3ccc(F)c(F)c3)C3(CN(C(N)=O)C3)C2=O)CC1 98
CC(C)N1CC(=O)N(Cc2ccc(Cl)c(F)c2)C2(CN(c3cccnn3)C2)C1=O 100
Cc1cc(CN2C(=O)CN([C@H]3CC[C@H](C)CC3)C(=O)C23CN(C(N)=O)C3)ccc1F 89

Item under review: `C[C@H]1CC[C@H](N2CC(=O)N(Cc3ccc(Cl)cc3)C3(CN(C(N)=O)C3)C2=O)CC1` . Reported activity at 0 min, 50 µM? 85
